Where these numbers come from: patent US20080207501A1

Biological target: T1, CGRP receptor (membranes prepared from SK-N-MC cells) (UniProt Q16602 23-461; O60894 27-148, limits assumed)
T1 construct: whole, on cells; Endogenous receptor in SK-N-MC cell membranes; also called CGRP receptors; CGRP RBA
T1 sequence (Q16602 23-461 limits assumed, chain 1 of 2): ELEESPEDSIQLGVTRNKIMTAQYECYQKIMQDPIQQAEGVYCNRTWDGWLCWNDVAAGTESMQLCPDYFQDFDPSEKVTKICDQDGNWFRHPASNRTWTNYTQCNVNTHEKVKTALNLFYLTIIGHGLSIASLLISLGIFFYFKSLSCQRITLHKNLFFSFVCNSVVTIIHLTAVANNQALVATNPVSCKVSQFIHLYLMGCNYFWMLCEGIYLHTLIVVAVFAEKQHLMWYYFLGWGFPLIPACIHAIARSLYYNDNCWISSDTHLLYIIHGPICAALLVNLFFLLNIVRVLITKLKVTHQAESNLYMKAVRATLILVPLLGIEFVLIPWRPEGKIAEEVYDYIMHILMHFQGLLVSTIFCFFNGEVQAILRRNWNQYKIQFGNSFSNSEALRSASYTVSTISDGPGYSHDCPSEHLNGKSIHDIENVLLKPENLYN
T1 sequence (O60894 27-148 limits assumed, chain 2 of 2): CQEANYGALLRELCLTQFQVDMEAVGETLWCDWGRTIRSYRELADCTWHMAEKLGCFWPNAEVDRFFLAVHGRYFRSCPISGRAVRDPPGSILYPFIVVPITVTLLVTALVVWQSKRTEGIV
Test: radioligand displacement, 125I-hCGRP, SK-N-MC cell membranes
Ends that are not written are not given here.
REPORTED_ENDPOINT: IC50 (nM)
Unit nM implied. Number only.

RVGCGNLSTCQVQNLSHRLWQLMGPAGRQDSAPVDPSSPHSY-NH2 (ends and bridges not checked) [AFP-6 analog SEQ ID NO: 28] | 35

Challenge: Annotate the binder TQAQLLRVGCVLGTCQVQNLSHRLWQLDSAPVDPSSPHSY-NH2 (ends and bridges not checked) [AFP-6 analog SEQ ID NO: 17] with its measured IC50.
Response given: 10.5

Challenge: Please report IC50 for the following binder: VCNTATCQVQNLSHRLWQLRQDSAPVDPSSPHSY-NH2 (ends and bridges not checked) [AFP-6 analog SEQ ID NO: 30]
Response given: 37

Challenge: For the binder TQAQLLRVGCSNLSTCQVQNLSHRLWQLMGPAGRQDSAPVDPSSPHSY-NH2 (ends and bridges not checked) [AFP-6 analog SEQ ID NO: 20] , report IC50.
Response given: 25

Challenge: Supply reported IC50 belonging to this binder: VGCVLGTCQVQNLSHRLWQLMGPAGRQDSAPVEPSSPHSY-NH2 (ends and bridges not checked) [AFP-6 analog SEQ ID NO: 35]
Response given: 4.7

Challenge: Give the reported value of IC50 for this record: RVGCGNLSTCQVQNLSHRLWQLMGPAGRQDSAPVDPSSPHSY-NH2 (ends and bridges not checked) [AFP-6 analog SEQ ID NO: 22]
Response given: 35
